Tested on: SK-MEL-5 melanoma
experiment-description: NCI-60 one-dose screen, 48 h
measurement-conditions: 10 µM unless noted
The panel holds about 83,000 compounds, 20% with a hit somewhere; the sample as a whole holds those more often. Activity calls are given as the source filed them. How the source made its calls: active means growth percent below 10; inactive means the rest.
Entry note: the call must match one of yes (1) = active, no (0) = inactive

>  <molecule>
CC(=O)N(C(C)=O)c1ccc(C)cc1

>  <group-label>
no (0)

$$$$

Then this molecule:
# outcome recorded in this test, key = CC(C)=CCC[C@@H](C)[C@H]1CC[C@@]2(C)C3=C(CC[C@]12C)[C@@]1(C)CC[C@H](O)C(C)(C)[C@@H]1CC3
no (0)

###

Tested on: MALME-3M melanoma
experiment-description: NCI-60 one-dose screen, 48 h (100 = growth as untreated, 0 = no growth, -100 = all killed)
measurement-conditions: 10 µM unless noted
About 83,000 compounds went through this panel and 20% of them were active in at least one assay; those are over-represented in the sample as a whole.
Listed next: entries and their corresponding growth.
The figure you give is taken to be in %; do not add the unit.

Example results:
>  <compound>
CCOC(=O)Nc1nccs1

>  <readout-type>
growth

>  <reported-measurement>
97.3

$$$$
>  <compound>
CC(c1ccccc1)N(C)C (stereo not drawn)

>  <readout-type>
growth

>  <reported-measurement>
141

$$$$

Now look at this one.
growth recorded for this compound, CC(=O)O[C@H]1CC[C@]2(C)C3=C(C(=O)C[C@H]2C1(C)C)[C@]1(C)CC[C@H]([C@H](C)CCC(=O)O)[C@@]1(C)CC3=O , is 98.1

###

System: SK-MEL-2 melanoma
experiment-description: NCI-60 one-dose screen, 48 h (100 = growth as untreated, 0 = no growth, -100 = all killed)
measurement-conditions: 10 µM unless noted
The panel holds about 83,000 compounds, 20% with a hit somewhere; the sample as a whole holds those more often. Active and inactive are the calls of the source. Rule for the calls: active = growth percent below 10; inactive = the rest.
readout-type: growth

Example results:
>  <molecule>
Cc1cc2c(C(C)C)c(O)c(O)c(C=Nc3ccccc3[N+](=O)[O-])c2c(O)c1-c1c(C)cc2c(C(C)C)c(O)c(O)c(C=Nc3ccccc3[N+](=O)[O-])c2c1O

>  <experimental-system>
SK-MEL-2 melanoma

>  <growth>
96.6% (inactive)

$$$$
>  <molecule>
COC1OC(COC(C)=O)C(OC(C)=O)C(OC(C)=O)C1OC(C)=O (stereo unspecified)

>  <experimental-system>
SK-MEL-2 melanoma

>  <growth>
101% (inactive)

$$$$
>  <molecule>
CC(=O)N(C(C)=O)c1ccc(C)cc1

>  <experimental-system>
SK-MEL-2 melanoma

>  <growth>
106% (inactive)

$$$$
>  <molecule>
CCC(C)C1CCC(O)CC1 (stereo unspecified)

>  <experimental-system>
SK-MEL-2 melanoma

>  <growth>
104% (inactive)

$$$$
>  <molecule>
CCCC(=O)c1cccs1

>  <experimental-system>
SK-MEL-2 melanoma

>  <growth>
115% (inactive)

$$$$

growth recorded for this molecule, O=C(NCc1ccco1)Nc1cccc2c(NC(=O)NCc3ccco3)cccc12 , is 78.2% [100 µM] (inactive)

growth recorded for this molecule, CCC(=O)C1C(=O)c2ccccc2C1=O , is 102% (inactive)

growth recorded for this molecule, Cc1cc2nc(C)c(C)nc2cc1C , is 113% (inactive)

growth recorded for this molecule, C(=C\c1ccncc1)/c1ccncc1 , is 88.2% (inactive)

growth recorded for this molecule, COC1CC(OC(=O)c2ccc([N+](=O)[O-])cc2)C(COC(=O)c2ccc([N+](=O)[O-])cc2)O1 (stereo unspecified) , is 127% (inactive)

growth recorded for this molecule, ON1CCCC1 , is 106% (inactive)

###

System: MOLT-4 leukemia
experiment-description: NCI-60 one-dose screen, 48 h (100 = growth as untreated, 0 = no growth, -100 = all killed)
measurement-conditions: 10 µM unless noted
Compounds without any hit were thinned out: in the full panel of roughly 83,000, 20% have a hit.
readout-type: growth (%)
The figure you give is taken to be in %; do not add the unit.

growth recorded for this compound, CCOC(=O)c1ccc(NC(C)=O)o1 , is 79.1

growth recorded for this compound, C[n+]1cc2cc3c(cc2c2ccccc21)OCO3 , is 12.4

growth recorded for this compound, CC(=O)N(C(C)=O)c1ccc(C)cc1 , is 93.9

growth recorded for this compound, Nc1cccc2cccc(O)c12 , is 83

growth recorded for this compound, O=[N+]([O-])c1ccc2[nH]c(=S)n(/C=C(/c3ccc(Cl)cc3Cl)S(=O)(=O)Cc3ccc(Cl)cc3Cl)c2c1 , is 98.3

growth recorded for this compound, Cc1cc(Cc2ccccc2)c(O)c(Cc2ccccc2)c1 , is 64.6

growth recorded for this compound, CCOC(=O)c1ccc(Nc2sc(C(=O)c3ccc(Br)cc3)c(N)c2C#N)cc1 , is 33.5

growth recorded for this compound, COc1cccc(C(=O)O)c1OC , is 110

growth recorded for this compound, COc1ccc(Br)c(C=O)c1 , is 18.9

###

System: SK-MEL-5 melanoma
experiment-description: NCI-60 one-dose screen, 48 h
measurement-conditions: 10 µM unless noted
This is part of a sample that, as a whole, favours compounds with a hit. Of some 83,000 tested, about 20% had one in any assay. Active and inactive are the calls of the source. The calls were made as follows: active = growth percent below 10; inactive = the rest.
Entry note: the call must match one of 1 = active, 0 = inactive

Study these solved cases before continuing.
>  <molecule>
Cc1ccc(C)c(CCO)c1

>  <group-label>
0

$$$$
>  <molecule>
CCCNS(=O)(=O)c1ccc(Cl)cc1

>  <group-label>
0

$$$$
>  <molecule>
Nc1ccc2ccccc2c1-c1c(N)ccc2ccccc12

>  <group-label>
0

$$$$
>  <molecule>
CCCCN(C=S)CCCC

>  <group-label>
0

$$$$
>  <molecule>
CN=S(=O)(OCCCCCOS(=O)(=NC)c1ccc(C)cc1)c1ccc(C)cc1 (stereo not given)

>  <group-label>
0

$$$$

# outcome recorded in this test, key = Cc1ccc(O)c(N)c1
0

# outcome recorded in this test, key = CCC12OC(COc3ccccc3)CN1CCN2c1ccccc1 (stereo not given)
0

# outcome recorded in this test, key = Cc1cc(NC(=O)c2ccccc2)c(Cl)cc1N
0

# outcome recorded in this test, key = CSc1nsc(N)n1
0

# outcome recorded in this test, key = NC(CO)(CO)c1ccccc1
0

# outcome recorded in this test, key = C=C1SC(=Nc2c(C)cccc2C)N(c2nc(Cl)nc(Cl)n2)C12CCCCC2
0

# outcome recorded in this test, key = CN1CCCN(C(c2ccccc2)c2ccc(Br)cc2)CC1 (stereo not given)
0

# outcome recorded in this test, key = COc1cccc(N=CNc2cccc(OC)c2)c1
0

# outcome recorded in this test, key = CC(=O)NC(O)C(Cl)Cl (stereo not given)
0

# outcome recorded in this test, key = Nc1ccn(C2OC(CO)C(O)C2F)c(=O)n1 (stereo not given)
0

# outcome recorded in this test, key = ClCc1cccc2c(CCl)cccc12
0

# outcome recorded in this test, key = CN1CCN(C(=S)S)CC1
0

# outcome recorded in this test, key = COc1cccc(C(=O)NNC(=O)c2cccc3ccccc23)c1
0

# outcome recorded in this test, key = Nc1c(O)c(S(=O)(=O)O)c(O)c2c1C(=O)c1ccccc1C2=O
1

# outcome recorded in this test, key = C=C(C)[C@@H]1CC[C@]2(CO)CC[C@]3(C)[C@H](CC[C@@H]4[C@@]5(C)CC[C@H](O)C(C)(C)[C@@H]5CC[C@]43C)[C@@H]12
1

# outcome recorded in this test, key = CC(C)C(C)(C)C(=O)C(C)(C)C(C)(C)C
0

# outcome recorded in this test, key = COC1OC(C(COC(C)=O)OC(C)=O)C(OC(C)=O)C(OC(C)=O)C1OC(C)=O (stereo not given)
0

# outcome recorded in this test, key = NC(=S)N/N=C/c1ccc(Cl)cc1
0

# outcome recorded in this test, key = Clc1ccc(/C=C/c2ccccn2)cc1
0

# outcome recorded in this test, key = CCNCC(C)(C)O
0

# outcome recorded in this test, key = CCOC(=O)N[C@H]1CCc2cc(OC)c(OC)c(OC)c2-c2ccc(SC)c(=O)cc21
1

# outcome recorded in this test, key = O=C(NCc1ccccc1)/C(=C/c1ccccc1)NC(=O)c1ccccc1
0

# outcome recorded in this test, key = COC(=O)C1(CC(C)=O)NC(=S)NC(=O)C1C#N (stereo not given)
0

# outcome recorded in this test, key = Nc1c(Br)cc(O)c2c1C(=O)c1ccccc1C2=O
0

# outcome recorded in this test, key = O=C(c1cccc(C(=O)c2ccc3c4c(cccc24)C(=O)N(c2ccccc2)C3=O)c1)c1ccc2c3c(cccc13)C(=O)N(c1ccccc1)C2=O
0

###

Test system: SW-620 colon
experiment-description: NCI-60 one-dose screen, 48 h (100 = growth as untreated, 0 = no growth, -100 = all killed)
measurement-conditions: 10 µM unless noted
About 83,000 compounds went through this panel and 20% of them were active in at least one assay; those are over-represented in the sample as a whole. The source made the active and inactive calls. The calls were made as follows: active = growth percent below 10; inactive = the rest.
Listed next: entries and their corresponding growth.

Example results:
>  <compound>
O=C(Nc1cccc(Cl)c1)c1ccc(Cl)cc1Cl

>  <readout-type>
growth

>  <reported-measurement>
92.7% (inactive)

$$$$
>  <compound>
COC1=C(OC)C(=O)C(SC/C=C(\C)CCCC(C)CCCC(C)CCCC(C)C)=CC1=O (stereo not given)

>  <readout-type>
growth

>  <reported-measurement>
18.7% (inactive)

$$$$
>  <compound>
C=C1C(=O)C2CCC1C2 (stereo not given)

>  <readout-type>
growth

>  <reported-measurement>
101% (inactive)

$$$$

growth recorded for this compound, O=C(CCl)Oc1ccc([N+](=O)[O-])cc1 , is 113% (inactive)

growth recorded for this compound, NC(=S)N/N=C/c1ccc(Cl)cc1 , is 113% (inactive)

growth recorded for this compound, CCN(C(C)=O)c1ccc([N+](=O)[O-])cc1 , is 98.2% (inactive)

growth recorded for this compound, COc1ccc2c(c1)Nc1ccccc1S2 , is 106% (inactive)

growth recorded for this compound, NNC(=O)c1ccccc1N , is 103% (inactive)

growth recorded for this compound, O=[N+]([O-])c1c(O)c(CNCCCO)cc(CNCCCO)c1O , is 96.3% (inactive)

growth recorded for this compound, O=C(c1ccc(Cl)cc1)N1CCCCC1 , is 99.8% (inactive)
